# procedure summary: Unbound clearance in male Wistar Han rat at 0.05 mg/kg, iv
# Format: ADME, organism-based
# condition context: in vivo
measured parameter: CL free (L/h/kg)

Would you please look over these solved cases?
- CC(C(=O)Nc1ccc(Cl)cc1)N1CCC2C(CCCN2c2ccnc(C(F)(F)F)n2)C1 (stereo in doubt; 33): 506.3
- O=C(Nc1ccc(F)cc1)C1(C2CCC3C(CCCN3c3ccnc(C(F)(F)F)n3)C2)CCC1 (stereo in doubt; 19): 799.26

(I) Cc1nccc(N2CCCC3CC(C4(C(=O)Nc5ccc(F)cc5)CCC4)CCC32)n1 (stereo in doubt; 15)
(II) C[C@@H](C(=O)Nc1ccc(F)cc1)C1CCC2C(CCCN2C(=O)c2cccc(Cl)c2)C1 (stereo in doubt; 6)
Higher CL free between I and II ? // caller expects the label of the chosen entry II
